Data provenance: patent US20140179900A1

# measurement.target: monoclonal antibody 12G6H5 (“Frida”)
# experimental.details: inhibition ELISA FIG. 18a, low peptide, 2.5 ng Frida, coat p4073
quantity.kind: ELISA signal with competitor

// worked examples, ELISA signal with competitor included
CDFGFPAHVFIDWLQSLS [p4480 C-…] | 0.521
FGFPEHLLVDFLQSLSC [p1208 …-C] | 0.712
CFGFPAHFSIDWLQSLS [p4475 C-…] | 2.21
CFKPAHVFIDWLQSLS [p4478 C-…] | 2.23
CFGFPEHLLVDFLQSLS [p4073 C-…, original CETP epitope] | 0.537
CGFKPAHVFIDWLQSLS [p4479 C-…] | 2.17
CFGFPAHVFIDWLQSLN [p4474 C-…] | 1.45

(A) CFGFPEHVFIDWLQSLS [p4477 C-…]
(B) CFGFPQHLFTDWLQSLS [p4481 C-…]
(C) CFGFPAHVSFDWLQSLS [p4476 C-…]
Query string: # rank by ELISA signal with competitor, ascending (min first) Give your ranking as a list of the labels in the requested order.
Result string: B, A, C
(B: 0.551, A: 0.808, C: 2)
